- System: Fibroblast
- Run Description: Incucyte cell viability with human fibroblast; also: unitless GR value; below 1 slowed growth and below 0 cell loss
- Type: toxicity, cell-based
- Experimental Context: 24 h, 10 µM, compound concentration 10 uM, replicate number 2
Consider the following partition of reported Growth Rate into named classes: lo (below 0.6), med (0.6 to below 0.8), hi (0.8 or more)

Band for CN(C)C(=O)Cn1cc(-c2nc(C3(c4ccc(-c5cnc(N)nc5)cc4)CC3)no2)cn1 ?
hi

Another compound to check: CN[C@@H](C)C(=O)N[C@H]1CCCC[C@H]2CC[C@@H](C(=O)N[C@@H](c3ccccc3)c3cn(CCCCc4ccc(CCCCn5cc([C@@H](NC(=O)[C@@H]6CC[C@@H]7CCCC[C@H](NC(=O)[C@H](C)NC)C(=O)N76)c6ccccc6)nn5)cc4)nn3)N2C1=O
med

Another compound to check: CC[C@@H](Nc1c(C#N)c(-c2ccc(-c3cccc(C)c3F)cc2)nc2cnccc12)C(=O)O
hi

Another compound to check: COC[C@@H](CC(C)C)NC1=N/C(=C\c2ccc3ncsc3c2)C(=O)N1C
lo

Another compound to check: COc1ccccc1C(=O)Nc1cccc(NC(=O)c2cccc(C)c2)c1
hi

Another compound to check: COc1cc(F)ccc1-c1ncnc(Nc2cccc(C[S@](C)(=N)=O)c2)n1
lo

Another compound to check: O=C(O)CCC/C=C\C[C@@H]1[C@@H](/C=C/[C@@H](O)COc2cccc(C(F)(F)F)c2)[C@H](O)C[C@@H]1O
lo

Another compound to check: O=C1NC(c2cccc([N+](=O)[O-])c2)=CCN1c1ccccc1O
hi

Another compound to check: COc1ccc([C@@H]2Sc3ccccc3N(CCN(C)C)C(=O)[C@@H]2OC(C)=O)cc1.Cl [DILTIAZEM HYDROCHLORIDE]
hi

Another compound to check: CNC(=O)c1cccc(-c2ccc3c(N4CCOC[C@@H]4C)nc(N4CCOC[C@@H]4C)nc3n2)c1
lo

Another compound to check: Cl.O=C(c1ccc(-c2ccc(Cl)cc2)o1)N(Cc1ccccn1)c1ccc(N2CCNCC2)cc1
lo

Another compound to check: Cc1cc(SCc2sc(-c3ccc(C(F)(F)F)cc3)nc2C)ccc1OCC(=O)O
hi

Another compound to check: CCCCCCCC/C=C\CCCCCCCC(=O)NCCO [OLEOYLETHANOLAMIDE]
hi

Another compound to check: COc1cc(Nc2ccc([N+](=O)[O-])cc2C(=O)O)cc2ccccc12
med

Another compound to check: CC(C)(C)NC(=O)c1cncn1C1CCN(c2ccc(-c3nnc(C(F)(F)F)o3)cn2)CC1
lo

Another compound to check: CC(=O)c1ccc2c(c1)/C(=C(/Nc1cccc(C#N)c1)c1ccc3c(c1)OCCO3)C(=O)N2
hi

Another compound to check: CO[C@H]1CC[C@H](N(c2cc(F)c(Oc3ncc(Cn4nccn4)cc3C(F)(F)F)cc2C(=O)O)C(=O)[C@H]2CC[C@H](C)CC2)CC1
med

Another compound to check: CCc1ncnc(N2CCN(C(C)=O)CC2)c1C#Cc1ccc(N)nc1.Cl.Cl
lo

Another compound to check: COc1ccc(-c2csc(NC(=O)[C@H]3CCCCN3S(=O)(=O)c3ccc(C)cc3)n2)cc1
med

Another compound to check: Clc1ccccc1C(c1ccccc1)(c1ccccc1)n1cccn1
lo

Another compound to check: CN(C)c1cc2c(Nc3ccc4c(cnn4Cc4ccccc4)c3)ncnc2cn1 [GW282974X]
med

Another compound to check: O=C1NCCc2c(OCCCCN3CCCCC3)cccc21
med

Another compound to check: O=C1CCC(N2Cc3cc(CNC(=O)C(F)(F)c4ccc(Cl)cc4)ccc3C2=O)C(=O)N1 (centres undefined)
hi

Another compound to check: Cc1nnc2n1-c1sc3c(c1C(c1ccccc1Cl)=NC2)C[C@@H](C(=O)N1CCOCC1)C3
hi

Another compound to check: Cn1cncc1-c1cn(-c2cccc(C(=O)Nc3cccc(C(F)(F)F)c3)c2)nn1
hi

Another compound to check: O=C(O)c1ccc(OCCCc2ccc(OCCCCOC3CCCCC3)cc2)c(C(=O)NC2CCCC(C(=O)O)C2)c1 (centres undefined)
med

Another compound to check: O=S(=O)(Nc1ccc(C(O)(C(F)(F)F)C(F)(F)F)cc1)c1cccs1
hi

Another compound to check: O=C(Nc1cc(C(F)(F)F)cc(C(F)(F)F)c1)c1cc(Cl)ccc1O
lo

Another compound to check: O=C(Nc1cc(-c2cn[nH]c2)ccc1N1CCOCC1)c1ccc(-c2ccc3ncccc3c2)o1
med

Another compound to check: COC[C@@H](C)N[C@H]1CC[C@H](Nc2cc(-c3cccc(NCC4(C#N)CCOCC4)n3)c(Cl)cn2)CC1
lo

Another compound to check: O=c1c(Br)ccc2n1C[C@@H]1CNC[C@H]2C1
hi

Another compound to check: CN(CCCCCCC1=C(c2cc(F)cc(F)c2)CCCc2cc(O)ccc21)CCCCS(=O)(=O)CCCC(F)(F)F
lo

Another compound to check: CC(=O)N1CCN([C@H]2CCC[C@@H](NC(=O)c3cc4c(F)ccc(C)c4[nH]3)C2)CC1.O=C(O)C(F)(F)F
hi
